B1: library; a variant is named by its letters at N, in order (parent)
chain: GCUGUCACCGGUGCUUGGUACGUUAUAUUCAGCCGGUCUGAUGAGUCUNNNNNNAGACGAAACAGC

- Variants of: B1
- TEST: normalized RNA/DNA level with ligand (relative to sTRSVctl = 100) (log10 (% of sTRSVctl)); HEK293T overexpressing SLC46A1; ligand concentration (+) RNA-Seq: 6 mM; higher = less ribozyme self-cleavage, higher mRNA level
- ASSAY_CONTEXT: with (6R,S)-folinic acid; ligand present: yes
MEASURED_METRIC: normalized RNA/DNA level with ligand (log10)
Write the value as a bare number.

biopolymer_sequence="GCUGUCACCGGUGCUUGGUACGUUAUAUUCAGCCGGUCUGAUGAGUCUUUCUUUAGACGAAACAGC [UUCUUU]" experimental_value=2.04
biopolymer_sequence="GCUGUCACCGGUGCUUGGUACGUUAUAUUCAGCCGGUCUGAUGAGUCUUAAGACAGACGAAACAGC [UAAGAC]" experimental_value=2.01
biopolymer_sequence="GCUGUCACCGGUGCUUGGUACGUUAUAUUCAGCCGGUCUGAUGAGUCUCGCGUAAGACGAAACAGC [CGCGUA]" experimental_value=2.01
biopolymer_sequence="GCUGUCACCGGUGCUUGGUACGUUAUAUUCAGCCGGUCUGAUGAGUCUCCGUUUAGACGAAACAGC [CCGUUU]" experimental_value=2.01
biopolymer_sequence="GCUGUCACCGGUGCUUGGUACGUUAUAUUCAGCCGGUCUGAUGAGUCUGAUUGGAGACGAAACAGC [GAUUGG]" experimental_value=2.03
biopolymer_sequence="GCUGUCACCGGUGCUUGGUACGUUAUAUUCAGCCGGUCUGAUGAGUCUCCUAGCAGACGAAACAGC [CCUAGC]" experimental_value=2.05
biopolymer_sequence="GCUGUCACCGGUGCUUGGUACGUUAUAUUCAGCCGGUCUGAUGAGUCUAAACUGAGACGAAACAGC [AAACUG]" experimental_value=2
biopolymer_sequence="GCUGUCACCGGUGCUUGGUACGUUAUAUUCAGCCGGUCUGAUGAGUCUGCAGGAAGACGAAACAGC [GCAGGA]" experimental_value=2.02
biopolymer_sequence="GCUGUCACCGGUGCUUGGUACGUUAUAUUCAGCCGGUCUGAUGAGUCUGCCGUCAGACGAAACAGC [GCCGUC]" experimental_value=2.08
biopolymer_sequence="GCUGUCACCGGUGCUUGGUACGUUAUAUUCAGCCGGUCUGAUGAGUCUUCGGACAGACGAAACAGC [UCGGAC]" experimental_value=2.05

Which normalized RNA/DNA level with ligand (log10) is listed for GCUGUCACCGGUGCUUGGUACGUUAUAUUCAGCCGGUCUGAUGAGUCUGUAGACAGACGAAACAGC [GUAGAC] ? 2

What about this variant? GCUGUCACCGGUGCUUGGUACGUUAUAUUCAGCCGGUCUGAUGAGUCUGGUGAAAGACGAAACAGC [GGUGAA] 2.01

What about this variant? GCUGUCACCGGUGCUUGGUACGUUAUAUUCAGCCGGUCUGAUGAGUCUUGCUCAAGACGAAACAGC [UGCUCA] 1.99

What about this variant? GCUGUCACCGGUGCUUGGUACGUUAUAUUCAGCCGGUCUGAUGAGUCUCCAGUUAGACGAAACAGC [CCAGUU] 2.02

What about this variant? GCUGUCACCGGUGCUUGGUACGUUAUAUUCAGCCGGUCUGAUGAGUCUACAAUCAGACGAAACAGC [ACAAUC] 2.03

Measured values drawn from the supplement of paper PMC6757056 for this set.
